Biological target: PARP16ΔTM (Homo sapiens, UniProt Q8N5Y8)
Sequence (Q8N5Y8 1-287 limits assumed, stated change not applied): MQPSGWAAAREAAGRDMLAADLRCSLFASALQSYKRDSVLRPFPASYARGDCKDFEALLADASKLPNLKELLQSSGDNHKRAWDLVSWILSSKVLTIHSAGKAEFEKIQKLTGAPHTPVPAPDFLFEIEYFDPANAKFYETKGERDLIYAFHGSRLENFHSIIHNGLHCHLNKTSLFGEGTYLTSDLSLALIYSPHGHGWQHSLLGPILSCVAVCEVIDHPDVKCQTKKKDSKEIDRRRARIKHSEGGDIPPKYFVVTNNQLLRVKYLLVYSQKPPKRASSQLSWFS
measurement_label: IC50 (nM)
Write the value in nM as a bare number.

Prompt: Which measured IC50 value corresponds to C=CC(=O)N1CCN(C(=O)c2cc(Cc3n[nH]c(=O)c4ccccc34)ccc2F)CC1 ?
Response: 1180
